# Procedure text: acute toxicity in the rat, oral
# Measurement context: in vivo, male and female FW 49-rats (1:1), oral as trituration in tylose, 14 days, Litchfield and Wilcoxon, 95% confidence limits, read-out: acute toxicity in the rat LD50 per os
Property: LD50 at 336 h (mg/kg)
Numeric only. Scale: mg/kg

// field: LD50 at 336 h; key: CC(CC(=O)O)c1ccc(-c2ccccc2F)cc1 (racemic) [A, 3-(2'-fluoro-4-biphenylyl)-butyric acid] ; value = 540

These entries and their values trace back to patent US3987197A.
